System: PCSK9 gene
ASSAY PROTOCOL: PCSK9 gRNA/SpCas9 editing in primary cynomolgus hepatocytes (Tables 2, 22)
Format: cell-based, cynomolgus monkey
MEASUREMENT CONDITIONS: 500 ng/RNA/mL; SpCas9 mRNA MS002 1:1 by weight
In the oligonucleotide strings, read from the 5' end, every base follows the letter of its sugar. An asterisk marks phosphorothioate; unmarked linkages are phosphodiester. Other units and linkages are bracketed, terminal groups are in braces. A string of capitals states the bases alone. m = 2'-O-methyl; r = 2'-OH (RNA)
The following molecules are listed with their measured Cyno Primary Hepatocyte Editing % 500 values.
Response body: numeric value in %, unit text excluded.

[
  {
    "MOLECULE": "GA200: PCSK9 gRNA; protospacer CTAGGAGATACACCTCCACC (SEQ ID NO: 194) (nucleic acid, sugars from the 5' end m3 r94 m3, linkages s3 o93 s3 (s phosphorothioate, o phosphodiester), T or U not given here) guide: CUAGGAGAUACACCUCCACCGUUUUAGAGCUAGAAAUAGCAAGUUAAAAUAAGGCUAGUCCGUUAUCAACUUGAAAAAGUGGCACCGAGUCGGUGCUUUU",
    "QUANTITY UNIT": "%",
    "Cyno Primary Hepatocyte Editing % 500": 20.51
  },
  {
    "MOLECULE": "GA183: PCSK9 gRNA; protospacer CTACGTGGTGGTGCTGAAGG (SEQ ID NO: 177) (nucleic acid) guide: mC*mU*mA*rCrGrUrGrGrUrGrGrUrGrCrUrGrArArGrGrGrUrUrUrUrArGrArGrCrUrArGrArArArUrArGrCrArArGrUrUrArArArArUrArArGrGrCrUrArGrUrCrCrGrUrUrArUrCrArArCrUrUrGrArArArArArGrUrGrGrCrArCrCrGrArGrUrCrGrGrUrGrCrU*mU*mU*mU",
    "QUANTITY UNIT": "%",
    "Cyno Primary Hepatocyte Editing % 500": 15.99
  }
]

Continue with the molecule presented below.
Q. Retrieve Cyno Primary Hepatocyte Editing % 500 measured for GA219: PCSK9 gRNA; protospacer GGCAGGGGTGGTCAGCGGCC (SEQ ID NO: 213) (nucleic acid, sugars from the 5' end m3 r94 m3, linkages s3 o93 s3 (s phosphorothioate, o phosphodiester), T or U not given here) guide: GGCAGGGGUGGUCAGCGGCCGUUUUAGAGCUAGAAAUAGCAAGUUAAAAUAAGGCUAGUCCGUUAUCAACUUGAAAAAGUGGCACCGAGUCGGUGCUUUU and print it.
A. 11.89
